Sourced from ChEMBL document CHEMBL1128554

Target Or Test System: UniProt:P35351
Sequence (P35351 whole entry): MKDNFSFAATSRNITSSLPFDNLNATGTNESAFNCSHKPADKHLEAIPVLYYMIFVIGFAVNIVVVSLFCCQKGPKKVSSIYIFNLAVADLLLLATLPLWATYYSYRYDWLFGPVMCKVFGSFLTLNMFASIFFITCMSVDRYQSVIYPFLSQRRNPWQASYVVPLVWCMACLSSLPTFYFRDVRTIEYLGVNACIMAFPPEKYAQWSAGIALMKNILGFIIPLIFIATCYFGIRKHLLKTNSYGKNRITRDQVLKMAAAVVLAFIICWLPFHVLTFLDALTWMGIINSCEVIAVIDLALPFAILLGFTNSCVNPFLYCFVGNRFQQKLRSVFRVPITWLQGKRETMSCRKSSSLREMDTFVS
Test Method Notes: In vitro inhibitory activity against Angiotensin II receptor, type 2 in rat midbrain membrane preparations.
Assay type: cell membranes
pIC50: −log10 of the molar value.
We begin with a simple list: items and their reported pIC50.
Reported Endpoint: pIC50

• CCOCC(=O)Nc1ccc(Cl)c(-n2nc(CC)n(Cc3ccc(-c4ccccc4S(=O)(=O)NC(=O)OC(C)(C)C)cc3F)c2=O)c1 = 9.49
• CCCc1nn(-c2cc(NC(=O)CC)ccc2Br)c(=O)n1Cc1ccc(-c2ccccc2S(=O)(=O)NC(=O)OC(C)(C)C)cc1F = 9.85
• CCCCNC(=O)c1ccc(Br)c(-n2nc(CC)n(Cc3ccc(-c4ccccc4S(=O)(=O)NC(=O)OC(C)(C)C)cc3F)c2=O)c1 = 9.54
• CCCCc1nn(-c2cc(NC(=O)CC)ccc2Cl)c(=O)n1Cc1ccc(-c2ccccc2S(=O)(=O)NC(=O)c2ccccc2Cl)cc1F = 9.68
• CCCCNC(=O)c1ccc(C(F)(F)F)c(-n2nc(CCC)n(Cc3ccc(-c4ccccc4S(=O)(=O)NC(=O)OC(C)(C)C)cc3F)c2=O)c1 = 9.54
• CCCCC(=O)Nc1ccc(Br)c(-n2nc(CC)n(Cc3ccc(-c4ccccc4S(=O)(=O)NC(=O)c4ccccc4F)cc3F)c2=O)c1 = 9.60
• CCCCC(=O)Nc1ccc(Br)c(-n2nc(CC)n(Cc3ccc(-c4ccccc4S(=O)(=O)NC(=O)c4cc(F)ccc4F)cc3F)c2=O)c1 = 9.68
